Test system: Plasmodium berghei
protocol_text: Luciferase/luciferin-expressing antifolate-resistant parasites were used to infect a culture of HepG2 cells that were pre-incubated with compounds. Infected hepatocytes emit light due to the luciferase reaction. Assay results are presented as the percent inhibition of light emission compared to control. […]
Assay type: functional
assay_context: sporozoite, FFLUC_HILL_SLOPE 0.573, FFLUC_R_SQUARED 0.0155, HEPG2TOX_HILL_SLOPE 1.65, HEPG2TOX_R_SQUARED 0.878, PBLUC_HILL_SLOPE 3.42, PBLUC_R_SQUARED 0.766, read-out: LUCIFERASE INFECTION ASSAY - IC50
value_kind: pIC50
API: returns pIC50 as number; meaning -log10 of concentration in mol/L.

input: Fill in: pIC50 on Plasmodium berghei, entry `COc1cc(-c2cnc3cnc(-c4ccsc4)cn23)cc(OC)c1OC`
output: 6.12

----------
Test system: Plasmodium berghei
protocol_text: Luciferase/luciferin-expressing antifolate-resistant parasites were used to infect a culture of HepG2 cells that were pre-incubated with compounds. Infected hepatocytes emit light due to the luciferase reaction. Assay results are presented as the percent inhibition of light emission compared to control. […]
Format: functional
assay_context: sporozoite, PBLUC_HILL_SLOPE 2.91, PBLUC_R_SQUARED 0.438, read-out: LUCIFERASE INFECTION ASSAY - IC50
value_kind: IC50 (µM)
Express your answer in µM, writing the number without its unit.

input: Read the entry `NCCCNc1ccnc2cc(Cl)ccc12` and write its reported IC50.
output: 8.74

----------
System: Plasmodium berghei
protocol_text: Luciferase/luciferin-expressing antifolate-resistant parasites were used to infect a culture of HepG2 cells that were pre-incubated with compounds. Infected hepatocytes emit light due to the luciferase reaction. Assay results are presented as the percent inhibition of light emission compared to control. […]
Assay type: functional
assay_context: sporozoite, read-out: LUCIFERASE INFECTION ASSAY - IC50
pIC50: −log10 of the molar value.
value_kind: pIC50

Examples with answers:
CCc1cccc2c(C3=CCN(c4ncnc5c4cnn5C)CC3)c[nH]c12	< 5.00
CN(C)S(=O)(=O)c1cccc(NC(=O)c2ccc3c(c2Cl)C(=O)c2ccccc2C3=O)c1	5.05
CC(C)(C)c1ccc(C(=O)N/N=C/c2cc(Cl)cc(Cl)c2O)cc1	< 5.04

input: Read the entry `CC(=O)N/C(=C\c1ccccc1)C(=O)OCc1ncc(-c2ccccc2)o1` and write its reported pIC50.
output: < 5.00

input: Read the entry `Cc1nc(SCc2ccc(C(F)(F)F)cc2)n(C)c(=O)c1Oc1ccc(F)cc1` and write its reported pIC50.
output: < 5.11

input: Read the entry `O=C(CSc1ccc(C(F)(F)F)cn1)Nc1cc(C(F)(F)F)cc(C(F)(F)F)c1` and write its reported pIC50.
output: < 5.13

input: Read the entry `FC(F)(F)c1ccnc(N2CCN(c3ncnc4scc(-c5ccccc5)c34)CC2)n1` and write its reported pIC50.
output: < 5.13

input: Read the entry `COc1ccc(-n2ncc(N3CCC(=O)CC3)c(Cl)c2=O)cc1` and write its reported pIC50.
output: < 5.00

input: Read the entry `Cc1nn(Cc2nnc(-c3ccco3)o2)c(C)c1S(=O)(=O)N1CCCCC1` and write its reported pIC50.
output: < 5.00

----------
Tested on: Plasmodium berghei
protocol_text: Luciferase/luciferin-expressing antifolate-resistant parasites were used to infect a culture of HepG2 cells that were pre-incubated with compounds. Infected hepatocytes emit light due to the luciferase reaction. Assay results are presented as the percent inhibition of light emission compared to control. […]
Format: functional
assay_context: sporozoite, HEPG2TOX_HILL_SLOPE 6.32, HEPG2TOX_R_SQUARED 0.972, PBLUC_HILL_SLOPE 10.3, PBLUC_R_SQUARED 0.636, read-out: LUCIFERASE INFECTION ASSAY - IC50
value_kind: IC50

input: Read the entry `COc1cccc(-c2cnn3ccc(Nc4cc(OC)c(OC)c(OC)c4)nc23)c1` and write its reported IC50.
output: 2700 nM
